Data provenance is ChEMBL document CHEMBL5247577.

Target: Histone deacetylase
Assay: Inhibition of HDAC in human HeLa cells using FLUOR DE LYS-SIRT1 as fluorogenic substrate incubated for 4 hrs by spectrophotometer based analysis
Type: cell-based
Please respond with reported EC50 for every item in the list.
Numbers only, in nM.

Recorded EC50, per entry:
{"columns": ["MOLECULE", "UOM", "EC50"],
 "data": [
  ["CCC(=O)CCCCC[C@H](NC(=O)C12CCN(CC1)CC2)c1ncc(-c2cc3ccccc3nc2OC)o1", "nM", 43],
  ["CCC(=O)CCCCC[C@H](NC(=O)C1CN(C)C1)c1ncc(-c2ccc3ccccc3c2)[nH]1", "nM", 125],
  ["CCC(=O)CCCCC[C@H](NC(=O)C(C)(C)N(C)C)c1ncc(-c2cc3ccccc3nc2OC)o1", "nM", 15],
  ["CCC(=O)CCCCC[C@H](NC(=O)Cc1c(C)[nH]c2ccc(OC)cc12)c1ncc(-c2ccc3ccccc3c2)o1", "nM", 412],
  ["CCC(=O)CCCCC[C@H](NC(=O)C1CN(C)C1)c1ncc(-c2ccc3ccccc3c2)o1", "nM", 873]
]}

Kindly give each listed record's EC50.
1. CCC(=O)CCCCC[C@H](NC(=O)C1(F)CN(C)C1)c1ncc(-c2cc3ccccc3nc2OC)o1
2. CCC(=O)CCCCC[C@H](NC(=O)C1CN(C)C1)c1ncc(-c2cc3ccccc3nc2OC)o1
3. CCC(=O)CCCCC[C@H](NC(=O)Cn1ccnn1)c1ncc(-c2cc3ccccc3nc2OC)o1
4. CCC(=O)CCCCC[C@H](NC(=O)C1CNC(=O)C1)c1ncc(-c2cc3ccccc3nc2OC)o1 (some centres undefined)

1: 430; 2: 50; 3: 138; 4: 208
